Provide the reported OD of each item.
system_tested: AchR (Homo sapiens, UniProt P02708)
Sequence (P02708 21-457): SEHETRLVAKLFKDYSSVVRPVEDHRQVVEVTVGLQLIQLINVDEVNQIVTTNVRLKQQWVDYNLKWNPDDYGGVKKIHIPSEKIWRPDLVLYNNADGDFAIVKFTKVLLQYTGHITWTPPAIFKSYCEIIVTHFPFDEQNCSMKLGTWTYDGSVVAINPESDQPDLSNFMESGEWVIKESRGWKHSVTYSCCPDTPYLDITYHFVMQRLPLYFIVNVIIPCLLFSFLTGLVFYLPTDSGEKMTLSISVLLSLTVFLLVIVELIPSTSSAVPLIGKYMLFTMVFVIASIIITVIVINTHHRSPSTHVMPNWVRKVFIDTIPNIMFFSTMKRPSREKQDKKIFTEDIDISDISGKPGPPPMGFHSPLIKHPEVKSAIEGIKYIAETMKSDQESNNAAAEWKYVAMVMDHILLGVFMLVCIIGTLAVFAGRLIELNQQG
protocol: ELISA of screened peptide phages on AchR versus streptavidin (OD450)
Format: binding
condition_description: ELISA of selected 11-mer (L2) peptide phages on AchR, absorbance at 450 nm; Spep-2 positive control

So what OD did L2-33 (INYRCRKWVDK; AchR binding peptide) [Peptide L2-33] get with AchR (Homo sapiens, UniProt P02708)?
0.619

So what OD did L2-15 (HTTRGKRCDPR; AchR binding peptide) [Peptide L2-15] get with AchR (Homo sapiens, UniProt P02708)?
0.705

So what OD did L2-30 (PTLKWRKPVLR; AchR binding peptide) [Peptide L2-30] get with AchR (Homo sapiens, UniProt P02708)?
0.746

So what OD did L2-16 (VDVRNKKSNNR; AchR binding peptide) [Peptide L2-16] get with AchR (Homo sapiens, UniProt P02708)?
0.77

So what OD did L2-4 (ECYRNRKAYCR; AchR binding peptide) [Peptide L2-4] get with AchR (Homo sapiens, UniProt P02708)?
0.757

So what OD did L2-166 (QQLRLRKLCGK; AchR binding peptide) [Peptide L2-166] get with AchR (Homo sapiens, UniProt P02708)?
0.579

So what OD did L2-181 (PGARCRKQDVK; AchR binding peptide) [Peptide L2-181] get with AchR (Homo sapiens, UniProt P02708)?
0.749

So what OD did L2-193 (PALRMRRWCQK; AchR binding peptide) [Peptide L2-193] get with AchR (Homo sapiens, UniProt P02708)?
0.705

So what OD did L2-39 (LMTKNRRNSFR; AchR binding peptide) [Peptide L2-39] get with AchR (Homo sapiens, UniProt P02708)?
0.669

So what OD did L2-67 (KTGRSKRHRWR; AchR binding peptide) [Peptide L2-67] get with AchR (Homo sapiens, UniProt P02708)?
0.696

So what OD did L2-169 (HDPRHKKTPTK; AchR binding peptide) [Peptide L2-169] get with AchR (Homo sapiens, UniProt P02708)?
0.733

So what OD did L2-142 (DNPRFRKTILK; AchR binding peptide) [Peptide L2-142] get with AchR (Homo sapiens, UniProt P02708)?
0.512

So what OD did L2-198 (DIYKGKRTLVK; AchR binding peptide) [Peptide L2-198] get with AchR (Homo sapiens, UniProt P02708)?
0.718

So what OD did L2-110: 11-mer optimized peptide of the L2 library (Table 11, not shown here) (RYAKHRKRQTR; AchR binding peptide) [Peptide L2-110] get with AchR (Homo sapiens, UniProt P02708)?
0.831

So what OD did L2-165 (AYPKFRKTFNR; AchR binding peptide) [Peptide L2-165] get with AchR (Homo sapiens, UniProt P02708)?
0.718

So what OD did L2-17 (GLNRWRRCHHK; AchR binding peptide) [Peptide L2-17] get with AchR (Homo sapiens, UniProt P02708)?
0.72

So what OD did L2-100 (MNYRCKRVQER; AchR binding peptide) [Peptide L2-100] get with AchR (Homo sapiens, UniProt P02708)?
0.551

So what OD did L2-108 (QQDRPKRDIPK; AchR binding peptide) [Peptide L2-108] get with AchR (Homo sapiens, UniProt P02708)?
0.716
